assay-explanation: Human pregnane X receptor (PXR) small molecule agonists, qHTS cell viability counter screen (AID 1346977); also: nearly all actives have a fitted effect of over 50% in size
condition-label: PXR-Luc HepG2 viability, CellTiter-Fluor, 24 h; series mostly up to 92.4 µM
Results filed as inconclusive are left out. Activity calls are given as the source filed them. Calls follow the shape of the dose curve; as a rule, active = well fitted cell-killing curve with a large enough effect in the repeat runs; inconclusive = weak or mixed curves, or effect the other way; inactive = flat fitted curve, though single readings scatter.
In this exercise, the only acceptable responses are active, inactive

OCCCc1cccnc1: inactive

Let us examine a further case.
### Prompt Call for entry CCC1(c2cnc[nH]2)Cc2ccccc2C1 :
### Response inactive

----------
assay-explanation: qHTS assay to identify small molecule agonists of the vitamin D receptor (VDR) signaling pathway - cell viability counter screen (AID 743224); also: nearly all actives have a fitted effect of over 50% in size
condition-label: VDR-bla HEK293T viability, CellTiter-Glo luminescence, 16 h; series mostly up to 62.6 µM
Inconclusive results are not listed. Activity calls are given as the source filed them. The call rests on the fitted dose curve; in most records, active means well fitted cell-killing curve with a large enough effect in the repeat runs; inconclusive means weak or mixed curves, or effect the other way; inactive means no such curve, though single readings can be large or run the other way.
In this exercise, the only acceptable responses are active, inactive

CCCOc1sc(C(=O)N2CCC(c3cc(CN)ccc3F)CC2)c(C)c1Br: active
O=C1OC(OC(=O)c2cccnc2Nc2cccc(C(F)(F)F)c2)c2ccccc21 (stereo not given): inactive
CCc1cccc(C)c1: inactive
CCN=C1C=CC(=C(c2ccc(N(CC)CC)cc2)c2ccc(N(CC)CC)cc2)c2ccccc21: active

### Prompt Call for entry Cn1cnc2ncnc(N)c21 :
### Response inactive

### Prompt Call for entry O=Nc1ccc(NO)cc1 :
### Response inactive

### Prompt Call for entry C=CC(=O)OCCOCC(CC)(COCCOC(=O)C=C)COCCOC(=O)C=C :
### Response active

### Prompt Call for entry CC(=O)Oc1ccc(C2(c3ccc(OC(C)=O)cc3)Oc3ccccc3NC2=O)cc1 :
### Response inactive

### Prompt Call for entry CCCCCCCCCC(=O)N(C)C :
### Response inactive

### Prompt Call for entry CCCSS/C(CCO)=C(\C)N(C=O)Cc1cnc(C)nc1N :
### Response inactive

### Prompt Call for entry O=C1C=CC(=O)N1c1ccccc1 :
### Response active

### Prompt Call for entry CC1=C(/C=C/C(C)=C/C=C/C(C)=C\C=O)C(C)(C)CCC1 :
### Response active

### Prompt Call for entry Clc1ccc(C(Cn2ccnc2)OCc2c(Cl)cccc2Cl)c(Cl)c1 (stereo not given) :
### Response active

### Prompt Call for entry CC(C)c1cccc(C(C)C)c1N1C(=O)c2ccc(O)cc2C1=O :
### Response active

### Prompt Call for entry COc1ccc2sc(C(=O)Nc3nnn[nH]3)c(OC(C)C)c2c1 :
### Response inactive

### Prompt Call for entry N#CSCSc1nc2ccccc2s1 :
### Response active

### Prompt Call for entry CNC(=S)NN :
### Response active

### Prompt Call for entry CC1(C)C(=O)N(Br)C(=O)N1Br :
### Response inactive

### Prompt Call for entry Oc1ccc(-c2ccc(O)cc2)cc1 :
### Response inactive

### Prompt Call for entry COC(=O)CC(C)CCC=C(C)C (stereo not given) :
### Response inactive

----------
assay-explanation: qHTS assay to identify small molecule agonists of the hypoxia (HIF-1) signaling pathway - cell viability counter screen (AID 1224844); also: nearly all actives have a fitted effect of over 50% in size
condition-label: HRE-bla ME-180 viability, CellTiter-Glo luminescence, 17 h; series mostly up to 76.8 µM
Records with an inconclusive call do not appear. Calls of active or inactive are those of the source. Calls come from the whole dose curve.
In this exercise, the only acceptable responses are YES (active), NO (inactive)

CCCCCCCC(OC)OC: NO
CCCCOC(=O)C(C)CC (stereo unspecified): NO
CCN(CC)c1cccc(C)c1: NO
COC(=O)CC(C)CCC=C(C)C (stereo unspecified): NO
O=C(Nc1ccc(Cl)cc1)Nc1ccc(Cl)c(C(F)(F)F)c1: YES
CCCCCCS: NO
CCCCCCCC(C)=O: NO
COCC(=O)O[C@]1(CCN(C)CCCc2nc3ccccc3[nH]2)CCc2cc(F)ccc2[C@@H]1C(C)C: YES

### Prompt Call for entry Cc1ccc2ccc3cccc4ccc1c2c34 :
### Response NO

### Prompt Call for entry CN1CCN(C2Cc3ccccc3Sc3ccc(Cl)cc32)CC1 (stereo unspecified) :
### Response YES

### Prompt Call for entry NC(=O)c1ccccc1N :
### Response NO

### Prompt Call for entry CCNc1nc(NC(C)CC)nc(OC)n1 (stereo unspecified) :
### Response NO

### Prompt Call for entry CN(Cc1cc(Br)cc(Br)c1N)C1CCCCC1 :
### Response NO
